Tested on: Sarcoma-180
Assay: Antitumor activity: inhibition of solid Sarcoma-180 tumor implanted subcutaneously in ICR mice
Type: in vivo
Conditions: day 22; i.p. 10 times every other day; mg/kg: 5-Fu 15, MP 10, 5-CAU 10, Phe+5-Fu 15+15, Phe+MP 15+10, Phe+5-CAU 15+10, Phe-5-Fu 30, Phe'-5-Fu 30, Phe-MP 20, Phe-5-CAU 20; control 3.438 ± 1.481; in g (unit assumed)
Procedure: The concentration of the solid tumor cells (Sarcoma-180) was aseptically adjusted to 1×10^6 /0.2 ml with a medium [prepared by filtering 10% bovine fetal serum-added MEM (Eagles' Minimum Essential Medium) for sterilization, and stored at 4° C.] and subcutaneously implanted at the axillas of ICR mice (5 weeks old; females; one group consisting of 10 mice). […] The inhibition rate (IR) (%) was calculated by the following formula: […]
measurement_type: Average tumor weight ± SD
I'd appreciate a reply containing only the number, no unit.

Below, each entry is followed by its recorded Average tumor weight ± SD result.
CCOC(=O)C(NC(=O)[C@@H](N)Cc1ccccc1)N[C@@H](Cc1ccc(N(CCCl)CCCl)cc1)C(=O)OC (stereo partly shown)    0.943
N[C@@H](Cc1ccc(N(CCCl)CCCl)cc1)C(=O)O [MP, Melphalan, reference compound]    1.358
N[C@@H](Cc1ccccc1)C(=O)NC(C(=O)O)n1cc(N(CCCl)CCCl)c(=O)[nH]c1=O (mixture of isomers)    0.854
CCOC(=O)C(NC(=O)[C@@H](N)Cc1ccccc1)n1cc(F)c(=O)[nH]c1=O (mixture of isomers)    0.808
O=c1[nH]cc(N(CCCl)CCCl)c(=O)[nH]1 [5-CAU, 5-[bis(2-chloroethyl)amino]uracil, reference compound]    1.574
O=c1[nH]cc(F)c(=O)[nH]1 [5-Fu, 5-fluorouracil, reference compound]    1.467

Kindly review the next molecule as well.
Recorded result, N[C@@H](Cc1ccccc1)C(=O)NC(C(=O)O)n1cc(F)c(=O)[nH]c1=O (mixture of isomers) , Average tumor weight ± SD: 0.770
